Quick reference: % Activity of the listed items.
Target: androgen receptor (adenovirus AdEasy+rAR in L929 cells) (Rattus norvegicus)
Construct: expressed in transfected cells
Sequence (P15207 whole entry S389L): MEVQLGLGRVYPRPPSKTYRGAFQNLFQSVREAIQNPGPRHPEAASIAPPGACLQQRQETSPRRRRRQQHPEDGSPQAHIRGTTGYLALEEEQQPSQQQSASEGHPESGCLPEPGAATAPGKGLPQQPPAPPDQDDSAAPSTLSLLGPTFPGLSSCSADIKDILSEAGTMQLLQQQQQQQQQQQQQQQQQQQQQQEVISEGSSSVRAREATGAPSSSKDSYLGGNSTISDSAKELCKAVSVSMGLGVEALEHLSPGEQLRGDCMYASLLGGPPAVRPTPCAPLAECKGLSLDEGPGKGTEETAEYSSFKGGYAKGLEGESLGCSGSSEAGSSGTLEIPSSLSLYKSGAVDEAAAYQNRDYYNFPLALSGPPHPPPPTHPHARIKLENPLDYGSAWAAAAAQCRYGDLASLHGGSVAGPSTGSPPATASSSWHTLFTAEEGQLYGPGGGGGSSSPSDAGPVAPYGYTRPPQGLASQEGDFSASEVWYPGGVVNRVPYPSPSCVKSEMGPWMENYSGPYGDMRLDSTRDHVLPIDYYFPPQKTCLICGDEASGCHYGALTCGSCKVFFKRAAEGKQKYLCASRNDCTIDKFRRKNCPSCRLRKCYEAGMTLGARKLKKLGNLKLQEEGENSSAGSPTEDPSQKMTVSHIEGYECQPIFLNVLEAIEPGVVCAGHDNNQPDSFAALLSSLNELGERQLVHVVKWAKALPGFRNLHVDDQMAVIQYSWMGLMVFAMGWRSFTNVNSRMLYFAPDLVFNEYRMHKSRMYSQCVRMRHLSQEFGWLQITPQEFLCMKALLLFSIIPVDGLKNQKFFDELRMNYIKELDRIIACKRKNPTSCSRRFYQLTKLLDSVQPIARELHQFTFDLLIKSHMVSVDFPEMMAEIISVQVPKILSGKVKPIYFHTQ
Experiment: L929 Androgen Receptor Functional Assay, Adenovirus Transduction
Assay type: cell-based
Details: L929 agonist testing; 3000 nM
Field format: number, assumed %, no unit text.

The observed % Activity for CCS(=O)(=O)C[C@](C)(O)c1cc2cc([N+](=O)[O-])c(C(F)(F)F)cc2[nH]1 when tested with androgen receptor (adenovirus AdEasy+rAR in L929 cells) (Rattus norvegicus) stands at 2

The observed % Activity for CCSCC(C)(O)c1cc2cc(F)c(C(F)(F)F)cc2[nH]1 (centres unmarked) when tested with androgen receptor (adenovirus AdEasy+rAR in L929 cells) (Rattus norvegicus) stands at 2

The observed % Activity for CCC(O)(CS(=O)(=O)CC)c1cc2cc([N+](=O)[O-])c(C(F)(F)F)cc2[nH]1 (centres unmarked) when tested with androgen receptor (adenovirus AdEasy+rAR in L929 cells) (Rattus norvegicus) stands at 3

New cases:
The observed % Activity for CC[S+]([O-])C[C@](C)(O)c1cc2cc([N+](=O)[O-])c(C(F)(F)F)cc2[nH]1 (stereo in doubt) when tested with androgen receptor (adenovirus AdEasy+rAR in L929 cells) (Rattus norvegicus) stands at 2

The observed % Activity for CC(O)(CSCC(F)(F)F)c1cc2cc(Cl)c(C(F)(F)F)cc2[nH]1 (centres unmarked) when tested with androgen receptor (adenovirus AdEasy+rAR in L929 cells) (Rattus norvegicus) stands at 1
